Quick reference for composite z-score among some compounds
target: Torsin-1A (Homo sapiens) (UniProt O14656); assay: torsin A binders from cell lysate, primary screen, small-molecule microarray, wild-type, 635/667 nm (AID 1149); conditions: COS7 hTOR1A-WT lysate, 635 nm fluorescence, higher = more signal
Sequence (O14656 whole entry, looked up): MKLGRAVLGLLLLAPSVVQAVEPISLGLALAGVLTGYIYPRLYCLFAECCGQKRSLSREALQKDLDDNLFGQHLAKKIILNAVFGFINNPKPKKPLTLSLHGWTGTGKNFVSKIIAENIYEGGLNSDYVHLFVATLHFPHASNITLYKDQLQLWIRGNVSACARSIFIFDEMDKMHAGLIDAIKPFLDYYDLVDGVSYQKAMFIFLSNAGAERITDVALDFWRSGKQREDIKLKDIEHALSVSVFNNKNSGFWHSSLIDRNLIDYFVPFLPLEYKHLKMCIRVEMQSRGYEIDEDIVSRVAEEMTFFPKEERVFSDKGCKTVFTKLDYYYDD
readout-type: composite z-score

- compound: "C=C(C)C1CCC(C(O)C2C=CC3C(=O)N(C)C(=O)C3N2Nc2cc(OC)c(OC)c(OC)c2)CC1 (stereo not drawn)"
  assay-value: -0.0834
- compound: "COCCOC(=O)N1C(=O)[C@@]2(c3cc(C#CC4(O)CCCCCC4)ccc31)[C@H](c1ccc(OCCO)cc1)N1[C@H](c3ccccc3)[C@H](c3ccccc3)OC(=O)[C@H]1[C@@H]2C(=O)Nc1nc2ccccc2s1"
  assay-value: 0.494
- compound: "[N-]=[N+]=NCc1ccccc1C[C@@]1(C(=O)N2CCCCC2)N=C(c2ccc(OCCCO)cc2)O[C@@H]1c1ccccc1CN=[N+]=[N-]"
  assay-value: 0.362
